assay_explanation: NCI Yeast Anticancer Drug Screen. Data for the cln2 rad14 strain (AID 165)
condition_notes: S. cerevisiae cln2 rad14 strain, at 50.0 µM (retest, dose inferred, filed as 5.0), active compounds read high
Compounds without any hit were thinned out: in the full panel of roughly 79,000, 15% have a hit.
Lab note: compare growth inhibition against 60%. Equal or greater, write TRUE. Smaller, write FALSE.

hey, is growth inhibition for this one >= 60%? "CCCCC(=O)OC1=C(Br)C(=O)c2ccccc2C1=O"
TRUE

Proceed to "CC(=O)N(C)c1ccc(/C=C2\C=Cc3ccccc32)cc1"
TRUE

Proceed to "CC(C)(C)C(=O)OCC(=O)c1ccc(-c2ccccc2)cc1"
FALSE

Proceed to COc1cc(C2c3cc4c(cc3[C@@H](Nc3cccc(O)c3)C3COC(=O)[C@H]23)OCO4)cc(OC)c1O (stereo not given in full)
TRUE

Proceed to "c1ccc(N=Nc2ccc3ccccc3c2)cc1"
FALSE

Proceed to "CCCn1cc2c(SC)nc(SC)nc2n1"
FALSE

Proceed to "Cc1cc(-c2ccc(N=Nc3cc(S(=O)(=O)O)c4ccccc4c3N)c(C)c2)ccc1N=Nc1cc(S(=O)(=O)O)c2ccccc2c1N"
FALSE

Proceed to CN(C)CC1CCc2ccc3ccccc3c2C1=O (stereo not given)
FALSE

Proceed to CCC(=O)/C(=C\c1ccccc1)C(=O)C(C)CN(C)C (stereo not given)
FALSE

Proceed to "CCCCCCCCCCCCCCCCOC(=O)C[n+]1ccc(C(N)=O)cc1"
TRUE

Proceed to "[O-][n+]1ccccc1Sc1nc(Sc2cccc[n+]2[O-])nc(Sc2cccc[n+]2[O-])n1"
TRUE

Proceed to "O=C(NNc1ccccc1)c1cccc([N+](=O)[O-])c1"
TRUE

Proceed to "Oc1c(Cl)cc(Cl)cc1/C=C1\C=Nc2ccccc21"
FALSE

Proceed to CCOC(=O)C1=C(c2ccccc2)OC(N)=C(C#N)C1c1ccc(C)cc1 (stereo not given)
FALSE

Proceed to c1ccc(N/N=C2/CCCC3/C(=N\Nc4ccccc4)CCCC23)cc1 (stereo not given)
TRUE

Proceed to CN1c2ccccc2C(c2ccccc2)c2ccc(Nc3ccccc3)cc21 (stereo not given)
TRUE

Proceed to "CCCCCCCCC1(C(=O)OCCN(CC)CC)CCCCC1"
TRUE

Proceed to "Cc1ccc(N=Nc2ccc(N)c3ccccc23)c(S(N)(=O)=O)c1"
FALSE

Proceed to CCCCCCCCCCCC(O)CN1CCOCC1 (stereo not given)
FALSE

Proceed to CCC(C)(O)Cc1cnccn1 (stereo not given)
FALSE

Proceed to "Ic1ccc2c(c1)N(c1ccccc1)c1cc(N=c3ccc4nc5ccc(I)cc5n(-c5ccccc5)c-4c3)ccc1N2"
FALSE

Proceed to C/C=C(\C)C(=O)OC1C2C(C)=CC(=O)C(O)C2(C)C2C3(O)OCC24C1OC(=O)C(O)C4C(C)C3O (stereo not given)
TRUE

Proceed to "FC(F)(F)c1ccc(NC(=S)SCc2ccc(Cl)cc2)cc1"
TRUE

Proceed to OC(CC(O)(C(F)(F)Cl)C(F)(F)Cl)c1ccccc1 (stereo not given)
FALSE

Proceed to "Cc1cc(Sc2ccccc2)c2c(C)ccc(C(C)C)cc1-2"
FALSE

Proceed to CCCCCCCCCCC[N+]1(Cc2ccccc2)CC2CCN(Cc3ccccc3)CC2C1 (stereo not given)
TRUE

Proceed to "O=C(Cc1nc2ccccc2s1)Nc1cccc(C(F)(F)F)c1"
TRUE

Proceed to "CC(C)COC(=O)c1ccc(N=Cc2ccc(C=Nc3ccc(C(=O)OCC(C)C)cc3)cc2)cc1"
FALSE

Proceed to COc1cccc2c1C(=O)c1c(O)c3c(c(O)c1C2=O)C[C@@](O)(C(C)=O)C[C@@H]3OC1CC([N+]([O-])(Cc2ccccc2)Cc2ccccc2)C(O)C(C)O1 (stereo not given in full)
TRUE

Proceed to "O=C1Oc2cc3c(c4cccc1c24)OCN(c1ccccc1)C3"
FALSE

Proceed to "CC(C)CCOC(=O)Nc1cccc(Cl)c1"
FALSE

Proceed to "COc1cc(NCCCCCNC2CCCCC2)c2ncccc2c1"
FALSE

Proceed to C=CCN1CCC(OC(=O)C(O)(/C=C\CC)C2CCCC2)CC1 (stereo not given)
TRUE

Proceed to O=C1c2ccc3ccccc3c2CCC1[n+]1ccc2ccccc2c1 (stereo not given)
FALSE

Proceed to "CSc1ccc(C(=O)C(=O)c2ccc(SC)s2)s1"
FALSE

Proceed to "C=CS(=O)(=O)c1ccc([N+](=O)[O-])cc1"
TRUE

Proceed to N#CC(NNC(=O)c1ccccc1O)c1c(O)ccc2ccccc12 (stereo not given)
TRUE

Proceed to "Oc1ccc2ccccc2c1.[Cu+2]"
FALSE

Proceed to O=S(=O)(c1ccccc1)C1CN=NC1c1ccccc1 (stereo not given)
TRUE

Proceed to CN(C)CC1CCCCCCCCCCCCC(CN(C)C)C1=O (stereo not given)
FALSE

Proceed to "Cc1cc(NS(=O)(=O)c2ccc(N)cc2)no1.[Ag]"
TRUE

Proceed to "CCC(=O)[O][Bi]([c]1ccccc1)[c]1ccccc1"
TRUE

Proceed to "COC(=O)CCC(=O)N1C/C(=C\c2ccccc2)C(=O)/C(=C/c2ccccc2)C1"
FALSE

Proceed to "Cc1cc(=O)n(-c2ccc(F)cc2)n1C"
FALSE
